biological target: hmGluR1 receptor (Homo sapiens, UniProt Q13255); construct: expressed in transfected cells; host or cells: CHO; test: IC50 Determination: intracellular calcium mobilization (FLIPR) in a CHO cell line stably expressing hmGluR1 receptor, against Quisqualate; format: cell-based; conditions: CHO cells expressing hmGluR1; against Quisqualate 1 μM (EC80); compounds added 10 minutes before agonist; read-out: mGluR1 IC50 rating
Sequence (Q13255 19-1194): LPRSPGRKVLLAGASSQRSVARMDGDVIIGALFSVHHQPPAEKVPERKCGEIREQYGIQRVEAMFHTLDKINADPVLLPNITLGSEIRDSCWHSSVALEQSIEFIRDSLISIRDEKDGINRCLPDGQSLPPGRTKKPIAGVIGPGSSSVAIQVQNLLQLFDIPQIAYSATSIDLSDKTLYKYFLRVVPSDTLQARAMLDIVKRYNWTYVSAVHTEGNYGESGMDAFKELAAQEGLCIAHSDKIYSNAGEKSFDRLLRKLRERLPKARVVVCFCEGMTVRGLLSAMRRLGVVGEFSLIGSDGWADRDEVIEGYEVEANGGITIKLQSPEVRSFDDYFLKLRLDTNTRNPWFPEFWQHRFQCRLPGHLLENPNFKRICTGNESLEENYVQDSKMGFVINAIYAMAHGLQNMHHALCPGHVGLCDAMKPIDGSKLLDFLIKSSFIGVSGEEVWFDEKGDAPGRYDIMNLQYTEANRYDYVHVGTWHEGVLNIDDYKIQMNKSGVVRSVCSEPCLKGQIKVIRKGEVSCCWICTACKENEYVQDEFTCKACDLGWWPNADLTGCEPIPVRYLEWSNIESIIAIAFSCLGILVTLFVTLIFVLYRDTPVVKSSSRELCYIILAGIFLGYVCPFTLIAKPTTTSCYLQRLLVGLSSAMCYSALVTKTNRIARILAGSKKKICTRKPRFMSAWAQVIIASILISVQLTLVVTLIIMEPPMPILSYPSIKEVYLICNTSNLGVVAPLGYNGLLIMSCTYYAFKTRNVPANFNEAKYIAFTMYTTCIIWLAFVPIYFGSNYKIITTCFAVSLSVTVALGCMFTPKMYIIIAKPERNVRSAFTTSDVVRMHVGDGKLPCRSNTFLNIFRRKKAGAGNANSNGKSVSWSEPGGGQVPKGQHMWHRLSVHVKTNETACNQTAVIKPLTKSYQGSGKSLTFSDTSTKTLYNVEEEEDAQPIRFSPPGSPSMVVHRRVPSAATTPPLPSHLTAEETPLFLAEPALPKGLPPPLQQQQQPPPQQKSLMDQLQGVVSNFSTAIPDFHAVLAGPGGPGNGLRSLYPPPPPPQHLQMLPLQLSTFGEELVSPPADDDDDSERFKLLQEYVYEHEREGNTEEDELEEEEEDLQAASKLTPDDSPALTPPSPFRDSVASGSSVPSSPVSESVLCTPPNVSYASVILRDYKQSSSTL
pIC50: −log10 of the molar value.
outcome.measure: pIC50

molecule: C[C@H](CO)Nc1c(Br)cnc2sc3c(=O)n(-c4ccc(Cl)cc4)cnc3c12 [Compound 37d]
target.entity: hmGluR1 receptor (Homo sapiens, UniProt Q13255)
pIC50: < 6.00

Query: Look up and report measured pIC50 (hmGluR1 receptor (Homo sapiens, UniProt Q13255)) for the following molecule: C[C@@H]1COc2cnc3sc4c(=O)n(-c5ccc(Cl)cc5)cnc4c3c2N1 [Compound 38d]
Reply: 7.00 to 7.70

Query: Look up and report measured pIC50 (hmGluR1 receptor (Homo sapiens, UniProt Q13255)) for the following molecule: Cn1ncc2cnc3sc4c(=O)n(C5CCCCC5)cnc4c3c21
Reply: 6.00 to 7.00

Query: Look up and report measured pIC50 (hmGluR1 receptor (Homo sapiens, UniProt Q13255)) for the following molecule: Cc1ccc(-n2cnc3c(sc4ncc5c(c43)N(C)CCO5)c2=O)cc1 [Compound 38f]
Reply: > 7.70

Query: Look up and report measured pIC50 (hmGluR1 receptor (Homo sapiens, UniProt Q13255)) for the following molecule: COc1ccc(-n2cnc3c(sc4ncc5cc[nH]c5c43)c2=O)cc1 [Compound 27b]
Reply: > 7.70

Origin of measurements: patent US7482360B2
